Recorded values, source patent US6924302B2.

target: PDGF-R (platelet derived growth factor receptor) beta subunit kinase domain (Homo sapiens, UniProt P09619); construct: nucleotides 1874-3507 of the human PDGF-R beta subunit kinase domain; polyhistidine (N); test: Kinase Selectivity Assay PDGF-R; type: biochemical
Sequence (P09619 564-1106): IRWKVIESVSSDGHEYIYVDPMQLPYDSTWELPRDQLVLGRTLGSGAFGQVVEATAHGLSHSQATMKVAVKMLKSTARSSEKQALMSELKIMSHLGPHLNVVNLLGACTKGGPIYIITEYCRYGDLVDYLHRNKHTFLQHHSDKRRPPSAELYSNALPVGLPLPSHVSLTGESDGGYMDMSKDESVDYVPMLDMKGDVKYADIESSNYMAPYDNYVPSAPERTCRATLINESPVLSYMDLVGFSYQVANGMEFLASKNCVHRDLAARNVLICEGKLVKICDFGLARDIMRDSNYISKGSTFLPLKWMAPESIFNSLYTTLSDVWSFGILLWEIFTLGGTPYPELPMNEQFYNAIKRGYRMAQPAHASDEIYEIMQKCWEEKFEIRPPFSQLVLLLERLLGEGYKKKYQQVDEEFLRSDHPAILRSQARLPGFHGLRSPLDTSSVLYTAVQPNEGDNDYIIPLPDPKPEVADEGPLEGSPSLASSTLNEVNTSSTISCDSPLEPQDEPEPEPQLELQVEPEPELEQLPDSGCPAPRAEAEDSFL
Consider the following compounds; for each one, report its IC50.
One number for each entry, in µM.

                                   compound  reported_result
0  Cc1ccc(F)c(C(=O)n2nc(Nc3ccc(S(N)(=O)=O)cc3)nc2N)c1F [Cpd 2]             10.7

With those in mind, consider the next compound.
What does the data say about its IC50? Entry: Cc1cc(C)c(C(=O)n2nc(Nc3ccc(S(N)(=O)=O)cc3)nc2N)s1 [Cpd 33]
0.039

====

target: Glycogen Synthase Kinase-3 (beta isoform) (Oryctolagus cuniculus, UniProt G1T8E2); construct: purchased New England Biolabs 6040; host or cells: E. coli; test: Kinase Selectivity Assay Glycogen Synthase Kinase-3; assay type: biochemical, rabbit; details: Kinase Selectivity, Tables 2a-2k; read-out: GSK-3 IC50
Sequence (G1T8E2 1-432): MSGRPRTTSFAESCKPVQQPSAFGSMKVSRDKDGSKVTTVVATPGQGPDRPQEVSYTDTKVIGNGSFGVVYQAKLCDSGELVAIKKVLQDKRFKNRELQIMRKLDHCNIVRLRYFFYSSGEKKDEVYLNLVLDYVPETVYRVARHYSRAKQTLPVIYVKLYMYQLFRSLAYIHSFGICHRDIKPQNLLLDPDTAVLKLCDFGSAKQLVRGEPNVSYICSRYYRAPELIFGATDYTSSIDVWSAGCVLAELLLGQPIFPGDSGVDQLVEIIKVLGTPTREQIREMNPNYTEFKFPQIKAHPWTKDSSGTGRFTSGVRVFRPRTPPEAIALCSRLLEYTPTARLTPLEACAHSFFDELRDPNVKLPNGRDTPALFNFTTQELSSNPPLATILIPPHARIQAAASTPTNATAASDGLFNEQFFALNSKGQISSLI
observable: pIC50
Answers are plain numbers, as −log10 of the molar value.

// each listed compound needs a value for pIC50
1. Nc1nc(Nc2ccccc2)nn1C(=O)Nc1ccccc1
2. Nc1nc(Nc2ccc(S(N)(=O)=O)cc2)nn1C(=O)c1ccsc1
3. CNS(=O)(=O)c1ccc(Nc2nc(N)n(C(=O)c3c(F)ccc(C)c3F)n2)cc1
4. Cc1ccc(F)c(C(=O)n2nc(N)nc2Nc2ccc(S(N)(=O)=O)cc2)c1F
5. Nc1nc(Nc2ccccc2)nn1C(=O)c1c(F)cccc1F

1. 7.00
2. 7.85
3. 7.31
4. 5.52
5. 7.26

====

target: HER2 (human epidermal growth factor receptor-2) (Homo sapiens); construct: begins at amino acid 676 followed by the remainder of the HER2 cytoplasmic domain; polyhistidine (N); assay: Kinase Selectivity Assay HER2; format: biochemical; conditions: Table 1; read-out: HER2 IC50
observable: IC50 (nM)
Answers are plain numbers, in nM.

>>> df
                      smiles_representation                             tested_target  observable  unit_name  reported_result
0  Cc1ccc(F)c(C(=O)n2nc(Nc3ccc(-n4ccnc4)cc3)nc2N)c1F  HER2 (human epidermal growth factor receptor-2) (Homo sapiens)        IC50         nM              147
1  Cc1ccsc1C(=O)n1nc(Nc2ccc(N3CCN(C)CC3)cc2)nc1N  HER2 (human epidermal growth factor receptor-2) (Homo sapiens)        IC50         nM              176

Could you share which IC50 value was measured for Cc1ccsc1C(=O)n1nc(Nc2ccc(S(=O)(=O)N(C)C)cc2)nc1N ?
436

====

biological target: MAP Kinase (ERK-2 isoform) (Rattus norvegicus); construct: polyhistidine (N); host or cells: E. coli; assay: Kinase Selectivity Assay MAP Kinase (ERK-2); type: biochemical
Sequence (P63086 whole entry, canonical isoform): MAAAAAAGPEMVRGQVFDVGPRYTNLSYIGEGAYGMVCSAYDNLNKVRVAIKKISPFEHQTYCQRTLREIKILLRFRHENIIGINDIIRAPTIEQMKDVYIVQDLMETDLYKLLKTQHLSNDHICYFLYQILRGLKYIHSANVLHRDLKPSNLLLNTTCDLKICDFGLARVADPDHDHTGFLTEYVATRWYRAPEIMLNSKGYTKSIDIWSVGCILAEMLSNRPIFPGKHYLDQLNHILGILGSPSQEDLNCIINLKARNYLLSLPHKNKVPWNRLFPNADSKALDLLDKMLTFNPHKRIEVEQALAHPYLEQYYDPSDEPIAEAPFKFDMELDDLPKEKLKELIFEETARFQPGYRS
observable: pIC50
Give bare numbers, as −log10 of the molar value.

Can you look up the measured pIC50 of Cc1ccc(F)c(C(=O)n2nc(Nc3ccc(S(N)(=O)=O)cc3)nc2N)c1F [Cpd 2] for me?
5.02

====

Record form. Attribute: pIC50. Fill in for each entry.
target: Glycogen Synthase Kinase-3 (beta isoform) (Oryctolagus cuniculus, UniProt G1T8E2); construct: purchased New England Biolabs 6040; host or cells: E. coli; experiment: Kinase Selectivity Assay Glycogen Synthase Kinase-3; type: biochemical, rabbit; settings: Kinase Selectivity, Tables 2a-2k; read-out: GSK-3 IC50
Give bare numbers, as −log10 of the molar value.

>>> df
                                   molecule  observable  reported_result
0  Cc1ccsc1C(=O)n1nc(Nc2ccc(N3CCNC3=O)cc2)nc1N       pIC50             7.15
1  Nc1nc(Nc2ccc(S(=O)(=O)N3CCCCC3)cc2)nn1C(=O)c1cccs1       pIC50             7.80
2  CCc1ccc(C(=O)n2nc(Nc3ccc(S(=O)(=O)Nc4ccccn4)cc3)nc2N)s1       pIC50             8.22
3  CC(O)c1ccc(F)c(C(=O)n2nc(Nc3ccc(S(N)(=O)=O)cc3)nc2N)c1F (centres unmarked)       pIC50             7.82

Attention now shifts to the item below.
Identify the measured pIC50 of Cc1ccccc1C(=O)n1nc(Nc2ccc(S(N)(=O)=O)cc2)nc1N for Glycogen Synthase Kinase-3 (beta isoform) (Oryctolagus cuniculus, UniProt G1T8E2).
7.01

====

I'd be grateful if you could share measured pIC50 for these entries.
target: CDK1:Cyclin-B (Homo sapiens, UniProt P06493); construct: purchased New England Biolabs 6020; host or cells: insect cells; test: CDK1 Screening Assay; assay type: biochemical; settings: Table 1; read-out: CDK1 IC50
Sequence (P06493 whole entry): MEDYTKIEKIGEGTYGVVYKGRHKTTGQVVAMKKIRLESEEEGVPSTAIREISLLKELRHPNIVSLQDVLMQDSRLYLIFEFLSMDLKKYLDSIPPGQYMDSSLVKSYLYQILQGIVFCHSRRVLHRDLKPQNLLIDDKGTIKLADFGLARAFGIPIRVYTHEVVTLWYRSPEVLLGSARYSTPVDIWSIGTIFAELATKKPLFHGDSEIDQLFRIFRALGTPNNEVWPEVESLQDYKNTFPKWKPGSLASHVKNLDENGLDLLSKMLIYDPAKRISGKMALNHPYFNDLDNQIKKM
Sequence (P14635 whole entry partner): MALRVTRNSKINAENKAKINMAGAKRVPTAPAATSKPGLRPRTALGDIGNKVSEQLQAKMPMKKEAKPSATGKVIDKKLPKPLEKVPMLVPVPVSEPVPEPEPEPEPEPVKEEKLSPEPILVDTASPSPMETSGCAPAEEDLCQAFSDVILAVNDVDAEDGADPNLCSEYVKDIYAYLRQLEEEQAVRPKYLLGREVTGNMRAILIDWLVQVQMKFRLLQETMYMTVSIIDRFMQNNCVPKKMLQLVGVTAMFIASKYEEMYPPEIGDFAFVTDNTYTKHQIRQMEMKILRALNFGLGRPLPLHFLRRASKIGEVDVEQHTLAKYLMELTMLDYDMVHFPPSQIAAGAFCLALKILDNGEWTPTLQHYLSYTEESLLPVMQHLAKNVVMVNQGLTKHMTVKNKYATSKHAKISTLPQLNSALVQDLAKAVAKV
One number for each entry, as −log10 of the molar value.

Examples with their reported pIC50 follow.
In [3]: df
Out[3]:
                                   compound  observable  reported_result
0  Nc1nc(Nc2ccc(S(N)(=O)=O)cc2)nn1C(=O)Cc1c(F)cccc1F       pIC50             7.06
1  Cc1ccc(F)c(C(=O)n2nc(Nc3ccc(N4CCN(C)CC4)cc3)nc2N)c1F       pIC50             5.84
2  CC1CCC(C(=O)n2nc(Nc3ccc(S(N)(=O)=O)cc3)nc2N)CC1 (stereo not drawn)       pIC50             7.45

GET /values?readout=pIC50&item= Cc1ccc(F)c(C(=O)n2nc(N)nc2Nc2ccc(S(N)(=O)=O)cc2)c1F
5.69

====

Target: HER2 (human epidermal growth factor receptor-2) (Homo sapiens, UniProt P04626)
Construct: begins at amino acid 676 followed by the remainder of the HER2 cytoplasmic domain; polyhistidine (N)
Sequence (P04626 676-1255 limits assumed): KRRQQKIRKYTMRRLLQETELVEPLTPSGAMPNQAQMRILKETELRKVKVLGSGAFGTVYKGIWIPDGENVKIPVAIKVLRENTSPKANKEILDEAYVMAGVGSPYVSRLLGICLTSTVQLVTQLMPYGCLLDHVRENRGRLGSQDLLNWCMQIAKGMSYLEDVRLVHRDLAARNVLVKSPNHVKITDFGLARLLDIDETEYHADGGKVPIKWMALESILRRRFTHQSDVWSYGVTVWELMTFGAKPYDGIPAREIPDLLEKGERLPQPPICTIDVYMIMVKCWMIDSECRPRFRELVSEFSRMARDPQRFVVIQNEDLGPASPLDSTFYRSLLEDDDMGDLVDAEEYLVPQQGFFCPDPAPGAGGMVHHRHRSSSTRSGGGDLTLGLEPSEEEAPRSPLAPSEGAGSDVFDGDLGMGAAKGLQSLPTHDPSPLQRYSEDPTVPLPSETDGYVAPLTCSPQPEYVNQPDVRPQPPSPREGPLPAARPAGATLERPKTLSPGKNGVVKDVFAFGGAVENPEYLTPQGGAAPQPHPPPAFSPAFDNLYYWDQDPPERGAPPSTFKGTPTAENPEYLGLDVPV
Assay: Kinase Selectivity Assay HER2
Format: biochemical
Conditions: Table 1; read-out: HER2 IC50
Procedure: Assays to test compound inhibition of other kinases were preformed using methods that measure the amount of phosphorylation of a biotinylated peptide substrate. Biotinylated peptide substrates were selected from the literature as appropriate for the enzyme being evaluated. […] The plate was read on a scintillation counter to determine ^33P-γ-ATP incorporated into the immobilized peptide. […] A maximum and minimum signal for the assay was determined on each plate. […]
observable: pIC50
Answers are plain numbers, as −log10 of the molar value.

In [3]: df
Out[3]:
                      smiles_representation                             tested_target  reported_result
0  Cc1ccsc1C(=O)n1nc(Nc2ccc(-n3ccnc3)cc2)nc1N  HER2 (human epidermal growth factor receptor-2) (Homo sapiens, UniProt P04626)             6.65
1  Nc1nc(Nc2ccc(S(N)(=O)=O)cc2)nn1C(=S)Nc1c(F)cccc1F  HER2 (human epidermal growth factor receptor-2) (Homo sapiens, UniProt P04626)             7.22
2  CCc1ccc(C(=O)n2nc(Nc3ccc(S(=O)(=O)N(C)C)cc3)nc2N)s1  HER2 (human epidermal growth factor receptor-2) (Homo sapiens, UniProt P04626)             6.38
3  Cc1ccc(F)c(C(=O)n2nc(Nc3ccc(S(=O)(=O)O)cc3)nc2N)c1F  HER2 (human epidermal growth factor receptor-2) (Homo sapiens, UniProt P04626)             5.13
4  CS(=O)(=O)Nc1ccc(Nc2nc(N)n(C(=O)c3c(F)cccc3F)n2)cc1  HER2 (human epidermal growth factor receptor-2) (Homo sapiens, UniProt P04626)             4.77
5  CCc1ccc(C(=O)n2nc(Nc3ccc(NS(C)(=O)=O)cc3)nc2N)s1  HER2 (human epidermal growth factor receptor-2) (Homo sapiens, UniProt P04626)             8.26

Each of the following entries comes with a recorded value; kindly state pIC50 for each.
1. Nc1nc(Nc2ccc(S(N)(=O)=O)cc2)nn1C(=O)c1c(F)ccc([N+](=O)[O-])c1F
2. Cc1ccc(F)c(C(=O)n2nc(Nc3ccc(-n4cnnc4)cc3)nc2N)c1F
3. CC(C)(C)OC(=O)/C=C/c1ccc(C(=O)n2nc(Nc3ccc(S(N)(=O)=O)cc3)nc2N)s1
4. Nc1nc(Nc2ccc(S(N)(=O)=O)cc2)nn1C(=O)c1sccc1-n1cccc1
5. Cc1ccsc1C(=O)n1nc(Nc2ccc(-n3cnnc3)cc2)nc1N
6. CNS(=O)(=O)c1ccc(Nc2nc(N)n(C(=O)c3c(F)cccc3F)n2)cc1

1: 5.21; 2: 6.09; 3: 5.83; 4: 6.70; 5: 5.65; 6: 5.95

====

target: Casein Kinase 2 (alpha and beta subunits) (Homo sapiens); construct: purchased New England Biolabs 6010; host or cells: E. coli; test: Kinase Selectivity Assay Casein Kinase 2; format: biochemical; conditions: Kinase Selectivity, Tables 2a-2k; read-out: Caseine Kinase 2 IC50
Sequence (P68400 whole entry): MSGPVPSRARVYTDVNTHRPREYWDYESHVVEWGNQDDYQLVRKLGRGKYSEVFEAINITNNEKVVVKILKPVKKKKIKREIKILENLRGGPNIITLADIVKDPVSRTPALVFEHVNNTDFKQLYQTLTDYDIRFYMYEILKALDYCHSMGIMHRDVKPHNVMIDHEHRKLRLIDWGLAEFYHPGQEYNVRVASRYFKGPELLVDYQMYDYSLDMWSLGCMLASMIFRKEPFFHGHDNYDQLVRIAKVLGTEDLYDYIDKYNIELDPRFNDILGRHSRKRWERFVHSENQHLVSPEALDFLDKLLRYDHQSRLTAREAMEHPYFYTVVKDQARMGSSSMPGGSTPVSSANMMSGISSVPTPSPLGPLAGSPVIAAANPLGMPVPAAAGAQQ
Sequence (P67870 whole entry partner): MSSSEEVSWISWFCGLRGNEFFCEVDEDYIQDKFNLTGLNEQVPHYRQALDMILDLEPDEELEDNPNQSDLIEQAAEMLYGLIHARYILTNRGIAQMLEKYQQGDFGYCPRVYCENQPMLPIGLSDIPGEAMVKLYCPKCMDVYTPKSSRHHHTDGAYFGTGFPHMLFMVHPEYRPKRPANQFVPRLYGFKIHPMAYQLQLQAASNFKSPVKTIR
observable: IC50

// each compound listed below needs its IC50
1. CC(O)c1ccc(F)c(C(=O)n2nc(Nc3ccc(S(N)(=O)=O)cc3)nc2N)c1F (stereo not drawn)
2. CNS(=O)(=O)c1ccc(Nc2nc(N)n(C(=O)c3c(F)ccc(C)c3F)n2)cc1
3. Nc1nc(Nc2ccc(S(N)(=O)=O)cc2)nn1C(=O)C1CCCCC1
4. Cc1ccc(F)c(C(=O)n2nc(Nc3ccc(N4CCNC4=O)cc3)nc2N)c1F
5. Cc1ccsc1C(=O)n1nc(Nc2ccc(NS(C)(=O)=O)cc2)nc1N
6. Nc1ccc(F)c(C(=O)n2nc(Nc3ccc(S(N)(=O)=O)cc3)nc2N)c1F
7. Cc1cc(C)c(C(=O)n2nc(Nc3ccc(-n4ccnc4)cc3)nc2N)s1

> 100 µM
> 100 µM
> 100 µM
> 100 µM
> 10 µM
> 100 µM
> 100 µM

Go through the items and report each one's IC50.
1. CNS(=O)(=O)c1ccc(Nc2nc(N)n(C(=O)c3sccc3C)n2)cc1
2. CCc1ccc(C(=O)n2nc(Nc3ccc(S(=O)(=O)NCCN(C)C)cc3)nc2N)s1
3. Nc1nc(Nc2ccc(S(N)(=O)=O)cc2)nn1C(=S)Nc1c(F)cccc1F
4. Nc1nc(Nc2ccc(S(=O)(=O)N3CCCCC3)cc2)nn1C(=O)c1cccs1
5. Cc1cc(C)c(C(=O)n2nc(Nc3ccc(S(=O)(=O)Nc4ccccn4)cc3)nc2N)s1
6. CNS(=O)(=O)c1ccc(Nc2nc(N)n(C(=O)c3sc(C)cc3C)n2)cc1

> 100 µM
5.3 µM
> 100 µM
> 100 µM
> 100 µM
> 100 µM
